- Tested Target: Human LPA1 (Homo sapiens)
- Assay Notes: Beta-Arrestin based assay for human LPA1R antagonists (PathHunter)
- Measurement Context: CHO cells stably expressing ProLink tagged human LPA1R; agonist LPA 0.5 micromolar
Property Measured: EC50

                                    compound              tested_target        result
 0  C[C@@H](OC(=O)Nc1c(-c2ccc(-c3ccc(C4(C(=O)O)CC4)cc3)cc2)oc2ncccc12)c1ccccc1Cl [Compound 153]  Human LPA1 (Homo sapiens)       < 50 nM
 1  CCNC(=O)N1CC(C(=O)O)(c2ccc(-c3ccc(-c4onc(C)c4NC(=O)O[C@H](C)c4ccccc4Cl)cc3)cc2)C1 [Compound 40]  Human LPA1 (Homo sapiens)  50 to 500 nM
 2  O=C(Nc1ocnc1-c1ccc(-c2ccc(C3(C(=O)O)CC3)cc2)cc1)OCc1ccccc1 [Compound 148]  Human LPA1 (Homo sapiens)      > 500 nM
 3  O=C(O)Cc1ccc(C2CCN(C(=O)CCNC(=O)OCc3ccccc3)CC2)cc1 [Compound 256]  Human LPA1 (Homo sapiens)      > 500 nM
 4  O=C(Nc1ncoc1-c1ccc(-c2ccc(C3(C(=O)O)CC3)cc2)cc1)OCc1ccccc1 [Compound 145]  Human LPA1 (Homo sapiens)  50 to 500 nM
 5  C[C@@H](OC(=O)Nc1ncoc1-c1ccc(-c2ccc(C3(C(=O)O)CC3)cc2)cc1)c1ccccc1 [Compound 143]  Human LPA1 (Homo sapiens)  50 to 500 nM
 6  Cc1nsc(-c2cc(Cl)c(-c3ccc(C4(C(=O)O)CC4)cc3)cc2F)c1NC(=O)O[C@H](C)c1ccccc1 [Compound 179]  Human LPA1 (Homo sapiens)       < 50 nM
 7  Cc1nsc(-c2ccc(-c3ccc(C4(C(=O)O)CC4)cc3)cc2)c1NC(=O)OCc1ccc(F)cc1Cl [Compound 102]  Human LPA1 (Homo sapiens)  50 to 500 nM
 8  Cc1nsc(-c2ccc(-c3ccc(C4(C(=O)O)CC4)cc3)cc2)c1NC(=O)O[C@H](C)c1cccc(F)c1 [Compound 194]  Human LPA1 (Homo sapiens)       < 50 nM
 9  Cc1ccccc1[C@@H](C)OC(=O)Nc1c(C)nsc1-c1ccc(-c2ccc(C3(C(=O)O)CC3)cc2)cc1 [Compound 86]  Human LPA1 (Homo sapiens)       < 50 nM
10  Cc1noc(C#Cc2ccc3cc(CC(=O)O)ccc3c2)c1NC(=O)O[C@H](C)c1ccccc1 [Compound 128]  Human LPA1 (Homo sapiens)  50 to 500 nM
11  Cc1noc(C#Cc2cc3sc(C(=O)O)cc3s2)c1NC(=O)O[C@H](C)c1ccccc1 [Compound 254]  Human LPA1 (Homo sapiens)  50 to 500 nM

====

- Tested Target: Human LPA1 (Homo sapiens, UniProt Q92633)
- Sequence (Q92633 whole entry): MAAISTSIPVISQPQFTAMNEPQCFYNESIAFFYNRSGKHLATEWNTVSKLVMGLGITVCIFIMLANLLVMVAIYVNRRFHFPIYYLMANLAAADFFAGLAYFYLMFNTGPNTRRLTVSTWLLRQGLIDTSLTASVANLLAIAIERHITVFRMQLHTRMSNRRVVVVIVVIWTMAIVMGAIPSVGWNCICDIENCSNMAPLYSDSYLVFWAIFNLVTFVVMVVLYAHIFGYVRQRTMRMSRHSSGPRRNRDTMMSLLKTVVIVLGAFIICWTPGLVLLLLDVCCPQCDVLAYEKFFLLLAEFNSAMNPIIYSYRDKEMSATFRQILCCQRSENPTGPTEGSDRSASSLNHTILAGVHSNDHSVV
- Assay Notes: Beta-Arrestin based assay for human LPA1R antagonists (PathHunter)
- Measurement Context: CHO cells stably expressing ProLink tagged human LPA1R; agonist LPA 0.5 micromolar
Property Measured: EC50

>>> df
                                    compound                             tested_target  property_measured        result
 0  Cc1nsc(-c2ccc(-c3ccc4c(ccn4CC(=O)O)c3)cc2)c1NC(=O)O[C@H](C)c1ccccc1Cl [Compound 104]  Human LPA1 (Homo sapiens, UniProt Q92633)               EC50      > 500 nM
 1  Cc1nsc(-c2ccc(-c3ccc(CC(=O)O)cc3F)cc2)c1NC(=O)O[C@H](C)c1ccccc1Cl [Compound 195]  Human LPA1 (Homo sapiens, UniProt Q92633)               EC50  50 to 500 nM
 2  CCCC(=O)Nc1ccnc(-c2ccc(-c3ccc(CC(=O)O)cc3)cc2)c1 [reference compound]  Human LPA1 (Homo sapiens, UniProt Q92633)               EC50      > 500 nM
 3  Cc1nc(-c2ccc(-c3ccc(C4(C(=O)O)CC4)cc3)cc2)c(NC(=O)O[C@H](C)c2ccccc2)o1 [Compound 154]  Human LPA1 (Homo sapiens, UniProt Q92633)               EC50  50 to 500 nM
 4  O=C(O)Cc1ccc(N2CCN(C(=O)[C@@H](NC(=O)OCc3ccccc3)c3ccccc3)CC2)cc1 [Compound 268]  Human LPA1 (Homo sapiens, UniProt Q92633)               EC50      > 500 nM
 5  Cc1nsc(-c2ccc(-c3ccc(C4(C(=O)O)CC4)cc3)cc2)c1NC(=O)OCc1ccccc1F [Compound 73]  Human LPA1 (Homo sapiens, UniProt Q92633)               EC50  50 to 500 nM
 6  Cc1noc(-c2ccc(-c3ccc4c(c3)CCCC4C(=O)O)cc2)c1NC(=O)O[C@H](C)c1ccccc1Cl (stereo partly drawn) [Compound 21]  Human LPA1 (Homo sapiens, UniProt Q92633)               EC50  50 to 500 nM
 7  Cc1nsc(-c2ccc(-c3ccc(C4(C(=O)O)CCC4)cc3)cc2)c1NC(=O)O[C@H](C)c1ccccc1 [Compound 127]  Human LPA1 (Homo sapiens, UniProt Q92633)               EC50  50 to 500 nM
 8  Cc1cc(-c2ccc(C3(C(=O)O)CC3)cc2)ccc1-c1snc(C)c1NC(=O)O[C@H](C)c1ccccc1Cl [Compound 115]  Human LPA1 (Homo sapiens, UniProt Q92633)               EC50       < 50 nM
 9  Cc1nsc(-c2ccc(-c3ccc(C4(C(=O)O)CC4)cc3)cc2)c1NC(=O)OCc1ccc(F)cc1 [Compound 98]  Human LPA1 (Homo sapiens, UniProt Q92633)               EC50  50 to 500 nM
10  Cc1noc(-c2ccc3c(c2)CCc2cc(CC(=O)O)ccc2-3)c1NC(=O)O[C@H](C)c1ccccc1Cl [Compound 78]  Human LPA1 (Homo sapiens, UniProt Q92633)               EC50  50 to 500 nM
11  Cc1nsc(C#Cc2ccc(C3(C(=O)O)CC3)cc2)c1NC(=O)O[C@H](C)c1ccccc1Cl [Compound 81]  Human LPA1 (Homo sapiens, UniProt Q92633)               EC50       < 50 nM
